Sourced from paper PMC12108418

System: Klebsiella pneumoniae (ATCC 33495)
Format: cell-based
Conditions: ATCC 33495
Square brackets hold non-standard residues; d marks the D form. Peptide text beside a SMILES is read from it. Orn = NCCC[C@H](N)C(=O)O
Measured MIC K. pneumonia ATCC 33495 of individual entries
Numbers only here, please. The scale is µg/mL.

Some compounds with known MIC K. pneumonia ATCC 33495 results, for comparison:
{"compound": "CC(C)C[C@@H]1NC(=O)[C@H](CCCN)NC(=O)[C@H](C(C)C)NC(=O)[C@@H]2CCCN2C(=O)[C@@H](Cc2ccccc2)NC(=O)[C@H](CC(C)C)NC(=O)[C@H](CCCNC(=N)N)NC(=O)[C@H](C(C)C)NC(=O)[C@@H]2CCCN2C(=O)[C@@H](CCCNC(=N)N)NC1=O [Peptide 15] (cyclo(L[dF]PV[Orn]L[dR]PVR))", "MIC K. pneumonia ATCC 33495, µg/mL": 16}
{"compound": "CC(C)C[C@@H]1NC(=O)[C@H](CCCN)NC(=O)[C@H](C(C)C)NC(=O)[C@@H]2CCCN2C(=O)[C@@H](CCCNC(=N)N)NC(=O)[C@H](CC(C)C)NC(=O)[C@H](CCCN)NC(=O)[C@H](C(C)C)NC(=O)[C@H](Cc2c[nH]c3ccccc23)NC(=O)[C@@H](Cc2ccccc2)NC1=O [Peptide 10] (cyclo(L[dF]WV[Orn]L[dR]PV[Orn]))", "MIC K. pneumonia ATCC 33495, µg/mL": 32}

Moving on to another compound below.
Prompt line: Return MIC K. pneumonia ATCC 33495 measured with Klebsiella pneumoniae (ATCC 33495) given this compound: CC(C)C[C@@H]1NC(=O)[C@H](CCCN)NC(=O)[C@H](C(C)C)NC(=O)[C@H](Cc2c[nH]c3ccccc23)NC(=O)[C@@H](Cc2ccccc2)NC(=O)[C@H](CC(C)C)NC(=O)[C@H](CCCN)NC(=O)[C@H](C(C)C)NC(=O)[C@H](Cc2c[nH]c3ccccc23)NC(=O)[C@@H](CCCNC(=N)N)NC1=O [Peptide 11] (cyclo(L[dF]WV[Orn]L[dR]WV[Orn]))
Response line: 16

---

System: Klebsiella pneumoniae (ATCC 33495)
Type: cell-based
Settings: ATCC 33495
Square brackets hold non-standard residues; d marks the D form. Peptide text beside a SMILES is read from it. Tle = CC(C)(C)[C@H](N)C(=O)O; Orn = NCCC[C@H](N)C(=O)O
metric: MIC K. pneumonia ATCC 33495 (µg/mL)
Numeric only. Scale: µg/mL

Prompt line: Need MIC K. pneumonia ATCC 33495, item CC(C)(C)[C@@H]1NC(=O)[C@H](CCCN)NC(=O)[C@H](C(C)(C)C)NC(=O)[C@@H]2CCCN2C(=O)[C@@H](Cc2ccccc2)NC(=O)[C@H](C(C)(C)C)NC(=O)[C@H](CCCN)NC(=O)[C@H](C(C)(C)C)NC(=O)[C@@H]2CCCN2C(=O)[C@@H](CCCNC(=N)N)NC1=O [Peptide 7] (cyclo([Orn][Tle][dF]P[Tle][Orn][Tle][dR]P[Tle]))
Response line: 32

---

System: Klebsiella pneumoniae (ATCC 33495)
Type: cell-based
Details: ATCC 33495
Square brackets hold non-standard residues; d marks the D form. Peptide text beside a SMILES is read from it. Tle = CC(C)(C)[C@H](N)C(=O)O; Orn = NCCC[C@H](N)C(=O)O; Abu = CC[C@H](N)C(=O)O
metric: MIC K. pneumonia ATCC 33495 (µg/mL)
Numbers only; they are read as µg/mL.

// worked examples, MIC K. pneumonia ATCC 33495 included
{"compound": "CC[C@@H]1NC(=O)[C@@H]2CCCN2C(=O)[C@@H](CCCNC(=N)N)NC(=O)[C@H](CC(C)C)NC(=O)[C@H](CCCN)NC(=O)[C@H](C(C)C)NC(=O)[C@@H]2CCCN2C(=O)[C@@H](Cc2ccccc2)NC(=O)[C@H](CC(C)C)NC(=O)[C@H](CCCNC(=N)N)NC1=O [Peptide 17] (cyclo([Abu]RL[dF]PV[Orn]L[dR]P))", "metric": "MIC K. pneumonia ATCC 33495", "recordedMeasurement": 32}
{"compound": "CC(C)C[C@@H]1NC(=O)[C@H](CCCN)NC(=O)[C@H](C(C)(C)C)NC(=O)[C@@H]2CCCN2C(=O)[C@@H](Cc2ccccc2)NC(=O)[C@H](CC(C)C)NC(=O)[C@H](CCCN)NC(=O)[C@H](C(C)C)NC(=O)[C@@H]2CCCN2C(=O)[C@@H](Cc2ccccc2)NC1=O [Peptide 12] (cyclo(L[dF]P[Tle][Orn]L[dF]PV[Orn]))", "metric": "MIC K. pneumonia ATCC 33495", "recordedMeasurement": 128}
{"compound": "CC[C@@H]1NC(=O)[C@@H]2CCCN2C(=O)[C@@H](Cc2ccccc2)NC(=O)[C@H](CC(C)C)NC(=O)[C@H](CCCNC(=N)N)NC(=O)[C@H](C(C)C)NC(=O)[C@@H]2CCCN2C(=O)[C@@H](CCCNC(=N)N)NC(=O)[C@H](CC(C)C)NC(=O)[C@H](CCCN)NC1=O [Peptide 16] (cyclo([Abu][Orn]L[dR]PVRL[dF]P))", "metric": "MIC K. pneumonia ATCC 33495", "recordedMeasurement": 32}

Prompt line: Looking for the measured MIC K. pneumonia ATCC 33495 of CC(C)(C)[C@@H]1NC(=O)[C@H](CCCN)NC(=O)[C@H](C(C)(C)C)NC(=O)[C@@H]2CCCN2C(=O)[C@@H](Cc2ccccc2)NC(=O)[C@H](C(C)(C)C)NC(=O)[C@H](CCCN)NC(=O)[C@H](C(C)(C)C)NC(=O)[C@@H]2CCCN2C(=O)[C@@H](Cc2ccccc2)NC1=O [Peptide 1] (cyclo([Orn][Tle][dF]P[Tle][Orn][Tle][dF]P[Tle])) , can you help?
Response line: 128
